target: hNPRA (Homo sapiens); experiment: NPRA Functional Cell Assay (cGMP HTRF); conditions: Human NPRA HEK JumpIn stable cells; cGMP by HTRF after 1 hour at 37° C.; 10-point dose response
pEC50: −log10 of the molar value.
TEST_READOUT: pEC50

COMPOUND	pEC50
CC(C)[C@]1(F)CCc2nc3c(F)cc(C(=O)N[C@H](CCN4CCCCC4CCN(C)C)c4ccc(-c5ccnnc5)nc4)cc3cc2C1 (mixture of isomers) [Example 43]	6.67
CC(C)[C@]1(F)CCc2nc3c(F)cc(C(=O)N[C@H](CCN4CCC5(CCOC5)CC4)c4ccc(-c5ccnnc5)nc4)cc3cc2C1 (racemic) [Example 38]	6.50
CC(C)[C@]1(F)CCc2nc3c(F)cc(C(=O)N[C@H](CCN(C)C)c4ccc(-c5ccnnc5)nc4)cc3cc2C1 (racemic) [Example 37]	6.57

[1] COC(=O)CC1CCN(CC[C@@H](NC(=O)c2ccc3nc4c(cc3c2)C[C@@H](C2(C)CC2)CC4)c2cccc(C(=O)NC3CN(C)C3)c2)CC1 (racemic) [Example 65]
[2] CC(C)[C@]1(F)CCc2nc3c(F)cc(C(=O)N[C@H](CCN4CCC(C(=O)O)CC4)c4ccc(-c5cnc(O)c(F)c5)cc4)cc3cc2C1 [Example 25]
[3] Cc1cc(C(=O)N[C@H](CCN2CCC(O)CC2)c2ccc(N3CCOC3=O)cc2)cc2cc3c(nc12)CCC(C(C)(C)C)C3 (stereo partly drawn) [Example 9]
Rank order required: pEC50, descending. Note for the reader: the ranking is given by listing the labels in the order requested.
2, 1, 3
(2: 6.78, 1: 6.44, 3: 5.59)

###

Biological target: hNPRA (Homo sapiens, UniProt P16066)
Sequence (P16066 33-1061): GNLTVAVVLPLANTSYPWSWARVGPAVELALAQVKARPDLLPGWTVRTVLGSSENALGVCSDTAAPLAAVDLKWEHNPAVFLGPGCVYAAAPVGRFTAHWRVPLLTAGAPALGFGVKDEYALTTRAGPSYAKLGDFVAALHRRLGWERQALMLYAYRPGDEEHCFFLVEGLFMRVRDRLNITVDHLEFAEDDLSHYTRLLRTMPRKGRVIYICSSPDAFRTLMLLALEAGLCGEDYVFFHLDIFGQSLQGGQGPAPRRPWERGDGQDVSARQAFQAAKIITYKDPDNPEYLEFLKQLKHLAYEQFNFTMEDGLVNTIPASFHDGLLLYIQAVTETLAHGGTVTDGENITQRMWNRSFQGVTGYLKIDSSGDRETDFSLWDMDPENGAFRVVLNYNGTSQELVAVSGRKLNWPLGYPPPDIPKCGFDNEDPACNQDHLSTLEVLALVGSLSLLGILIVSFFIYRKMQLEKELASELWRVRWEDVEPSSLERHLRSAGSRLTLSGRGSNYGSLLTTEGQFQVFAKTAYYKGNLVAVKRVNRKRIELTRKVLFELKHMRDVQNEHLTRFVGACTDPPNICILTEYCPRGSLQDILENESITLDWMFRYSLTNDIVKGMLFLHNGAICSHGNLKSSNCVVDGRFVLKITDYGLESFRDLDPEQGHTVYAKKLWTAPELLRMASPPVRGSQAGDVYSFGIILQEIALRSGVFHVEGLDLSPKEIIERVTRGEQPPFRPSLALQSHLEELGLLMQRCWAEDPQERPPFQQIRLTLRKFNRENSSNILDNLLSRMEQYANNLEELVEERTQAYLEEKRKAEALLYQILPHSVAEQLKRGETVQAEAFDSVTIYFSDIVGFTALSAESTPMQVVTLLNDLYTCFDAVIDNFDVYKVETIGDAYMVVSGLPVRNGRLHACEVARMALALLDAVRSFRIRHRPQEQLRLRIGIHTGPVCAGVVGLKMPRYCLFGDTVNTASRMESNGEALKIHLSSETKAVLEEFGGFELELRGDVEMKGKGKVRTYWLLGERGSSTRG
Test: NPRA Functional Cell Assay (cGMP HTRF)
Conditions: Human NPRA HEK JumpIn stable cells; cGMP by HTRF after 1 hour at 37° C.; 10-point dose response
Description: Assay Buffer components HEPES and Opti-MEM® I Reduced-Serum with Glutamine (no phenol red) were from Gibco/Invitrogen (Thermo Fisher Scientific, Waltham, Mass. USA). […] The assay ready frozen (ARF) Human/rat/dog NPRA HEK JumpIn Stable frozen cells (low passage number 5-11) were prepared in-house. […] hNPRA EC50 (nM) are were determined for the compounds of Example 1 through 273 and are reported in the Experimental section of this application.
TEST_READOUT: EC50 (nM)

COMPOUND	MEASUREMENT_UNITS	RECORDED_MEASUREMENT
CC(C)[C@]1(F)CCc2nc3c(F)cc(C(=O)N[C@H](CCN4CCC(O)CC4)c4cnc(NS(=O)(=O)N(C)C)c(F)c4)cc3cc2C1 [Example 27]	nM	2450
CC(C)[C@]1(F)CCc2nc3c(F)cc(C(=O)N[C@H](CCN4CCC(C(C)(C)O)CC4)c4ccc(-c5ccnnc5)nc4)cc3cc2C1 (racemic) [Example 47]	nM	188

[1] CC(C)[C@]1(F)CCc2nc3c(F)cc(C(=O)N[C@H](CCN4CCC5(CCCO5)CC4)c4ccc(-c5ccnnc5)nc4)cc3cc2C1 (racemic) [Example 55]
[2] CC(C)[C@]1(F)CCc2nc3c(F)cc(C(=O)N[C@H](CCN4CCCOCC4)c4ccc(-c5ccnnc5)nc4)cc3cc2C1 (racemic) [Example 57]
[3] CC(C)[C@]1(F)CCc2nc3c(F)cc(C(=O)N[C@H](CCN4CCC(C(O)C5(CO)CC5)CC4)c4ccc(-c5ccnnc5)nc4)cc3cc2C1 (mixture of isomers) [Example 54]
[4] CC(C)[C@]1(F)CCc2nc3c(F)cc(C(=O)N[C@H](CCN4CCC5(CC4)COC5)c4ccc(-c5ccnnc5)nc4)cc3cc2C1 (racemic) [Example 50]
Arrange items by their EC50 values in increasing order. Note for the reader: the ranking is given by listing the labels in the order requested.
3, 2, 4, 1
(3: 91.1 nM, 2: 142 nM, 4: 240 nM, 1: 344 nM)

[A] CC(C)[C@]1(F)CCc2nc3c(F)cc(C(=O)N[C@H](CCN4CCC5(CC4)CC5CO)c4ccc(-c5ccnnc5)nc4)cc3cc2C1 (mixture of isomers) [Example 39]
[B] CN1CC(NC(=O)c2cccc([C@@H](CCN3CCC[C@H]3CO)NC(=O)c3ccc4nc5c(cc4c3)C[C@@H](C3(C(F)F)CC3)CC5)c2)C1 [Example 23]
[C] COC1CCN(CC[C@@H](NC(=O)c2cc(F)c3nc4c(cc3c2)C[C@](F)(C(C)C)CC4)c2ccc(-c3ccnnc3)nc2)CC1 [Example 18]
Rank order required: EC50, descending. Note for the reader: the ranking is given by listing the labels in the order requested.
B, A, C
(B: 405 nM, A: 258 nM, C: 147 nM)
